ASSAYED TARGET: HLA-A*02:02
ASSAY COMMENT: IEDB peptide-MHC binding, purified MHC/competitive/radioactivity; filed as Kd, often an IC50 or EC50 that approximates it; bounds were set here for any values at or beyond the usual limits of such assays
RUN PARAMETERS: source organism: Homo sapiens
Entries and their measured Kd follow.
MEASURE NAME: Kd

| SEQUENCE CODE | ASSAYED TARGET | REPORTED RESULT |
| --- | --- | --- |
| QLADETLLKV | HLA-A*02:02 | 0.014 µM |
| ELNDRLAVYI | HLA-A*02:02 | 0.134 µM |
| QLYKEQLAKL | HLA-A*02:02 | 0.00463 µM |

====

ASSAYED TARGET: HLA-B*44:02
ASSAY COMMENT: IEDB peptide-MHC binding, purified MHC/competitive/radioactivity; filed as Kd, often an IC50 or EC50 that approximates it; bounds were set here for any values at or beyond the usual limits of such assays
RUN PARAMETERS: source organism: Homo sapiens
Entries and their measured Kd follow.
MEASURE NAME: Kd

| SEQUENCE CODE | REPORTED RESULT |
| --- | --- |
| AELLNIPFLY | 0.005 µM |
| YTAVVPLVY | 7.78 µM |

====

ASSAYED TARGET: HLA-B*40:01
ASSAY COMMENT: IEDB peptide-MHC binding, purified MHC/direct/fluorescence; filed as Kd, often an IC50 or EC50 that approximates it; bounds were set here for any values at or beyond the usual limits of such assays
RUN PARAMETERS: source organism: Mycobacterium tuberculosis

| SEQUENCE CODE | Kd |
| --- | --- |
| AVFPRYHPR | ≥ 20 µM |

====

ASSAYED TARGET: HLA-B*15:17
ASSAY COMMENT: IEDB peptide-MHC binding, purified MHC/direct/fluorescence; filed as Kd, often an IC50 or EC50 that approximates it; bounds were set here for any values at or beyond the usual limits of such assays
RUN PARAMETERS: source organism: Camelpox virus CMS
pKd: −log10 of the molar value.

| SEQUENCE CODE | pKd |
| --- | --- |
| ISIPRSVGF | ≥ 9.00 |

====

ASSAYED TARGET: HLA-A*69:01
ASSAY COMMENT: IEDB peptide-MHC binding, purified MHC/direct/fluorescence; filed as Kd, often an IC50 or EC50 that approximates it; bounds were set here for any values at or beyond the usual limits of such assays
RUN PARAMETERS: source organism: Mammarenavirus lassaense
MEASURE NAME: Kd

| SEQUENCE CODE | ASSAYED TARGET | REPORTED RESULT |
| --- | --- | --- |
| KHDEEFCDM | HLA-A*69:01 | ≥ 20 µM |

====

ASSAYED TARGET: HLA-A*80:01
ASSAY COMMENT: IEDB peptide-MHC binding, purified MHC/direct/fluorescence; filed as Kd, often an IC50 or EC50 that approximates it; bounds were set here for any values at or beyond the usual limits of such assays
RUN PARAMETERS: source organism: Mammarenavirus machupoense
pKd: −log10 of the molar value.

| SEQUENCE CODE | pKd |
| --- | --- |
| ISEMLSKEY | 5.10 |
